Just for reference, the RNAGym collection of RNA variant scans (doi:10.1073/pnas.2313332121) is where these values come from.

B1: TPR t1 (parent)
chain: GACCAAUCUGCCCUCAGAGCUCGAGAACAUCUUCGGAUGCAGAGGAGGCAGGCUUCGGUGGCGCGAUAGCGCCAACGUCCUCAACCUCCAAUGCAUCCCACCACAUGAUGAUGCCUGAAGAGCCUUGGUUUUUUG

variants of: B1; assay: polymerase ribozyme fitness, log enrichment relative to wild type (log ratio); higher = more active; in vitro selection for triplet polymerase activity
Use satisfied when the recorded polymerase ribozyme fitness (log ratio) is no lower than -3; use not satisfied when it is lower.

C73A A90U A105G G113C G122C
not satisfied

Determine whether this variant has polymerase ribozyme fitness (log ratio) no lower than -3: C13U A37U C64U U92A U126C
not satisfied

Determine whether measured polymerase ribozyme fitness (log ratio) meets or exceeds -3 for A2G C104U
satisfied

Is reported polymerase ribozyme fitness (log ratio) greater than or equal to -3 here: C11G C49A U81G G93U C101G U109A
not satisfied

# bool: polymerase ribozyme fitness (log ratio) of C56G G69U U81A C88A A100U >= -3
satisfied

Evaluate U7G U30A C101U U109A C124A : polymerase ribozyme fitness (log ratio) at minimum -3?
not satisfied

Is the recorded value of polymerase ribozyme fitness (log ratio) equal to or greater than -3 for this variant? U14G G120U
satisfied

Reported polymerase ribozyme fitness (log ratio) reaches at least -3 for C62A G117C U133A ?
not satisfied
